# TARGET: Recombinant thioredoxin glutathione reductase (TGR) (Schistosoma mansoni)
# PROTOCOL_NOTES: biochemical
# Assay type: biochemical, S. mansoni
VALUE_TYPE: IC50

* N#Cc1c(-c2ccc([N+](=O)[O-])cc2)no[n+]1[O-] | 2200 nM

###

Entries and their measured pIC50 follow.
# TARGET: Recombinant thioredoxin glutathione reductase (TGR) (Schistosoma mansoni, UniProt Q962Y6)
# Sequence (Q962Y6 1-598): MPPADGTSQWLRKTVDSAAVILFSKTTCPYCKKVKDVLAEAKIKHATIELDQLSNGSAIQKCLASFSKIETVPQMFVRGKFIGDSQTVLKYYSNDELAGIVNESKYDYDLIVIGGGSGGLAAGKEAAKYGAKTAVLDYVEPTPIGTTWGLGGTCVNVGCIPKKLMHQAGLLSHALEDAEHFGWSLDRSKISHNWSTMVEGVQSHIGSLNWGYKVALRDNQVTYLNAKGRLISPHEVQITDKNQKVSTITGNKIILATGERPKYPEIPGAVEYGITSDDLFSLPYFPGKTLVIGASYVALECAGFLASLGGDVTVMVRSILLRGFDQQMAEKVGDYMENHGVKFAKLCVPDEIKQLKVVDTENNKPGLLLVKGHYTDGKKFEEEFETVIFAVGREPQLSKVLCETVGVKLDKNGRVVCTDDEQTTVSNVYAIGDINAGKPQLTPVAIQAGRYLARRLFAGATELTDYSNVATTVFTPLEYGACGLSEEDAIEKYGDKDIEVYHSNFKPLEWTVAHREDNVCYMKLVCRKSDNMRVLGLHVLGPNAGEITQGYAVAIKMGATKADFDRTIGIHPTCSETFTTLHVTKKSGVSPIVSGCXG
# PROTOCOL_NOTES: biochemical
# Assay type: biochemical, S. mansoni
# MEASUREMENT_SETUP: read-out: TGR IC50
pIC50: −log10 of the molar value.
VALUE_TYPE: pIC50

- N#Cc1c(-c2cc(F)cc(-c3no[n+]([O-])c3C#N)c2)no[n+]1[O-] [Compound 45]: 6.32
- COc1cccc(-c2no[n+]([O-])c2C#N)c1 [Compound 33]: 5.05
- N#Cc1c(-c2ccc(F)c(Br)c2)no[n+]1[O-] [Compound 35]: 5.55
- N#Cc1c(-c2ccccc2)no[n+]1[O-] [Compound 49, reference compound]: 5.20
- Cc1ccc(-c2no[n+]([O-])c2C#N)cc1 [Compound 27]: 4.95
- N#Cc1c(-c2ccc(-c3ccccc3)cc2)no[n+]1[O-] [Compound 28]: 4.80
- [O-][n+]1onc(-c2ccccc2)c1CO [Compound 51]: 4.95
- N#Cc1c(-c2cccc(Cl)c2)no[n+]1[O-] [Compound 30]: 5.46
- N#Cc1c(-c2cccc(C(F)(F)F)c2)no[n+]1[O-] [Compound 32]: 5.60
- N#Cc1c(-c2cccc(-c3no[n+]([O-])c3C#N)c2)no[n+]1[O-] [Compound 43]: 5.46
- COc1ccc(-c2no[n+]([O-])c2C#N)cc1 [Compound 26]: 5.00
- N#Cc1c(-c2cccc([N+](=O)[O-])c2)no[n+]1[O-] [Compound 55]: 5.66
- N#Cc1c(-c2ccc(C(F)(F)F)cc2)no[n+]1[O-] [Compound 24]: 5.15
- N#Cc1c(-c2cccc(Br)c2)no[n+]1[O-] [Compound 31]: 5.55
- N#Cc1c(-c2ccc(Br)cc2)no[n+]1[O-] [Compound 23]: 5.46
- COc1cc(-c2no[n+]([O-])c2C#N)cc(OC)c1OC [Compound 38]: 5.05
- COc1ccccc1-c1no[n+]([O-])c1C#N [Compound 34]: 5.10
- N#Cc1c(-c2ccc(O)cc2)no[n+]1[O-] [Compound 48]: 4.75
- N#Cc1c(-c2cccc(O)c2)no[n+]1[O-] [Compound 46]: 5.15
- N#Cc1c(-c2ccc(F)cc2)no[n+]1[O-] [Compound 21]: 5.10
- O=Cc1c(-c2ccccc2)no[n+]1[O-] [Compound 52]: 6.96
- N#Cc1c(-c2ccc(Cl)cc2)no[n+]1[O-] [Compound 22]: 5.40
